Molecular target: human 5-HT6 receptor (Homo sapiens)
Construct: expressed in transfected cells
Sequence (P50406 whole entry): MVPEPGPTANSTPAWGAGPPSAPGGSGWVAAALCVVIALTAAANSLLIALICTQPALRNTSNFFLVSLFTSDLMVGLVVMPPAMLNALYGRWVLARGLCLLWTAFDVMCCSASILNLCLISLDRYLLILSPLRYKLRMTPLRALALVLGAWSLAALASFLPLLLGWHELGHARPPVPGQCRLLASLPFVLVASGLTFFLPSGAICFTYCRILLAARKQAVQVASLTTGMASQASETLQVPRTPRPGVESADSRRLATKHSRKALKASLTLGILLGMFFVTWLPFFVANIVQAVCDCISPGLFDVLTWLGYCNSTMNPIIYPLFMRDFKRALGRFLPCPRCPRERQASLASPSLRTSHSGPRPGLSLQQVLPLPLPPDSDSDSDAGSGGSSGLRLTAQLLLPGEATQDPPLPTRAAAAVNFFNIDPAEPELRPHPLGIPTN
Assay: GPCR radioligand binding assay, [3H]-LSD displacement, HEK293 membranes
Conditions: 5-HT6; replicate exp_1; read-out: %inh 5-HT6 exp_1
Please mark 1 if the recorded inhibition at 10 µM is equal to or greater than 40%, and -1 if it falls below.

Is inhibition at 10 µM at least 40%? Consider Cn1c(N)nc2ccccc21
-1

Is it the case that Cc1cc2ccccc2nc1N has inhibition at 10 µM reaching or exceeding 40%?
-1

inhibition at 10 µM >= 40% for O=C1NC(=O)/C(=C\c2cccs2)N1 ?
-1

Record Oc1ccccc1N1CCCCC1 ; criterion: inhibition at 10 µM no lower than 40%. Met?
1

Identify whether the reported inhibition at 10 µM of the following compound is 40% or greater: O=C(O)C1CCN(c2ncccn2)CC1
-1

Confirm if inhibition at 10 µM reported for the compound CC1CCc2sc(C(=O)O)cc2C1 (stereo not shown) is 40% or above.
1

inhibition at 10 µM >= 40% for Nc1nnc(-c2cccs2)[nH]1 ?
1

Threshold query (inhibition at 10 µM >= 40%) on O=C(O)c1cnc(-c2ccccc2)s1
1

Textbook exercise: given the entry CS(=O)(=O)Nc1ccc(C(=O)O)cc1 , state whether its inhibition at 10 µM is greater than or equal to 40%.
-1

Form field: inhibition at 10 µM at least 40%? Entry: CC(=O)c1sc(-c2ccc(O)cc2)nc1C [E1]
1

// inclusive: inhibition at 10 µM at least 40%? input: Nc1nnc2ccccn12
1

Does inhibition at 10 µM meet or surpass 40% for c1cnc2cccnc2c1 ?
-1

Record c1cnc2ncccc2c1 ; criterion: inhibition at 10 µM no lower than 40%. Met?
1

I'd appreciate it if you could say whether NC(=O)N1CCC(C(=O)O)CC1 has inhibition at 10 µM at least equal to 40%.
1

Confirm if inhibition at 10 µM reported for the compound O=C(c1ccccc1F)N1CCNCC1 is 40% or above.
-1

hey, is inhibition at 10 µM for this one >= 40%? c1ccc(Nc2nncs2)cc1
-1

----------
Please go through the items and note down their %inh 5-HT6 average.
Target: human 5-HT6 receptor (Homo sapiens)
Construct: expressed in transfected cells
Assay: GPCR radioligand binding assay, [3H]-LSD displacement, HEK293 membranes
Settings: 5-HT6; average of exp_1 and exp_2
Output spec: scalar in %, unitless text.

Field request: %inh 5-HT6 average | item: Oc1cnc(-c2ccccc2)nc1
41

Give the measured %inh 5-HT6 average of O=C(O)CC1CCC(=O)N1 (stereo not shown) .
16

Please look up its %inh 5-HT6 average: c1ccc2c(N3CCNCC3)ccnc2c1
72

Consider the compound shown here: O=C1CCC(=O)N(c2ccccc2)N1 What is its recorded %inh 5-HT6 average?
22

Sample Cc1nccn1Cc1cccc(C#N)c1 — what was its %inh 5-HT6 average?
41

Data request, read-out %inh 5-HT6 average, for O=C(O)c1ccc(CN2CCOCC2)cc1
44

Which %inh 5-HT6 average is reported for this compound? CCCN1C(=O)CC(=O)NC1=S
49

----------
Target: recombinant SETD2 (Homo sapiens, UniProt Q9BYW2)
Sequence (Q9BYW2 1418-1714 limits assumed): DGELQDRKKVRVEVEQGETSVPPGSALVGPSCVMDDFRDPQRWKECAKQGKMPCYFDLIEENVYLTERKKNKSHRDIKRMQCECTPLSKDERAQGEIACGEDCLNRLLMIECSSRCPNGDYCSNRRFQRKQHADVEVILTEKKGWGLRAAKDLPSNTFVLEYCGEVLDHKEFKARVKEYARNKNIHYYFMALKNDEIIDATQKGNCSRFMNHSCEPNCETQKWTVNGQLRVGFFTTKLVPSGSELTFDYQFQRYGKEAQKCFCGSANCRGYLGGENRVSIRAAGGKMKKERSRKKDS
Assay: SETD2 Chemiluminescence assay (H3K36 tri-methylation)
Conditions: chemiluminescence-based enzymatic assay
Observable: IC50 (µM)
Please give a number only; it is taken to be in µM.

Give recorded IC50 with recombinant SETD2 (Homo sapiens, UniProt Q9BYW2) for the following compound: CS(=O)(=O)Nc1ccc(C(=O)O)cc1
500

Enter reported IC50 observed with recombinant SETD2 (Homo sapiens, UniProt Q9BYW2) for CC1CCc2sc(C(=O)O)cc2C1 (centres unmarked)
300
